# experimental protocol: PAMPA permeability test
# Format: in vitro ADME
# assay context: PAMPA; PBS pH 7.4, 5 h, room temperature; read-out: PAMPA Pe
# Method: This test allows the determination of the compound’s passive diffusion through biological membranes. Precoated PAMPA Plate System Gentest was obtained from Corning (Tewksbury, MA, USA). Test compounds and caffeine solutions (200 µM) were prepared in a PBS buffer (pH = 7.4) and then added to the PAMPA plate. The plate was incubated at room temperature for 5 h without agitation. […]
measured metric: Papp at 5 h, 200 µM (×10⁻⁶ cm/s)
Write it as a number; the unit ×10⁻⁶ cm/s goes unstated.

CC1NC(NS(=O)(=O)c2cccc3ccccc23)=Nc2cccc(Cl)c21 (centres unmarked)
1.72

Now look at this one.
Item: Cn1c(=O)c2c(ncn2C)n(C)c1=O [caffeine, reference compound] | Papp at 5 h, 200 µM: 8.23

###

Consider the following compounds and their measured Ki readings.
# target entity: human 5-HT6 (Homo sapiens)
# Construct: expressed in transfected cells
# Sequence (P50406 whole entry): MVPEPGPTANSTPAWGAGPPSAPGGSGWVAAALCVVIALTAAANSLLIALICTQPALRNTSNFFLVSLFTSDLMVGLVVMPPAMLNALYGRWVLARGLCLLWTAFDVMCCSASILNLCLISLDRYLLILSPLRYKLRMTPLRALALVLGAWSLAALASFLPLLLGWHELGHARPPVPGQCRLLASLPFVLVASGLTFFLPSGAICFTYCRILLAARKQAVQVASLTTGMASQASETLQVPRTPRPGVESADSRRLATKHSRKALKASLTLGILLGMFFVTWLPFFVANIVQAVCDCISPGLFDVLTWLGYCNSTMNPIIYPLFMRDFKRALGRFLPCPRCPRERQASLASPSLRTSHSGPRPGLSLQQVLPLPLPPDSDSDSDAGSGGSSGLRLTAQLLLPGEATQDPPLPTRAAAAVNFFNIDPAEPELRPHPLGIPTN
# experimental protocol: [3H]-LSD radioligand binding assay, 5-HT6R
# assay context: HEK293 expressing human 5-HT6R, read-out: 5-HT6 Ki
Hi! Could you send only the number? It should be in µM, unit omitted.

Please review the entries below; each comes with its answer.
O=S(=O)(Nc1nc2ccccc2[nH]1)c1ccccc1 [PR 10]
1.72
O=S(=O)(NC1=Nc2ccccc2CN1)c1cccc2cc(Cl)ccc12 [PR 44]
0.282
N#Cc1cccc(S(=O)(=O)n2c(N)nc3ccccc32)c1 [PR 2]
49.2
O=S(=O)(NC1=Nc2ccccc2CN1)c1ccc(Cl)c2ccccc12 [PR 42]
0.268
O=S(=O)(NC1=NCCc2ccccc2N1)c1ccc2ccccc2c1 [PR 38]
1.41
O=S(=O)(NC1=Nc2cc(Cl)ccc2CN1)c1cccc2ccccc12 [PR 48]
0.668
O=S(=O)(NC1=Nc2ccc(N3CCOCC3)cc2CN1)c1cccc2ccccc12 [PR 65]
4.7
CC1NC(NS(=O)(=O)c2ccccc2)=Nc2ccccc21 (centres unmarked) [PR 28]
4.03

Record summary for CN(c1nc2ccccc2n1C)S(=O)(=O)c1ccc2ccccc2c1 [PR 12] : reported Ki = 41.9

Sample Cc1cccc2c1CNC(NS(=O)(=O)c1cccc3ccccc13)=N2 [PR 61] ; Ki observed: 0.412

Memo: CC1NC(NS(=O)(=O)c2cccc3ccccc23)=Nc2c(Cl)cccc21 (centres unmarked) [PR 71] , reported Ki: 0.061

For reference, reported Ki for O=S(=O)(NC1=Nc2ccc(C(F)(F)F)cc2CN1)c1cccc2ccccc12 [PR 57] stands at 1.02

###

# experimental protocol: Affinity to phospholipids, IAM column (CHI IAM)
# Assay type: physicochemical
# assay context: IAM.PC.DD2 column, pH 7.4
List of CHI IAM values.
# answer = number (no unit)

O=S(=O)(NC1=Nc2cccc(Cl)c2CN1)c1ccc2ccccc2c1
46.0
CC1NC(NS(=O)(=O)c2cccc3ccccc23)=Nc2c(Cl)cccc21 (stereo not shown)
44.8
O=S(=O)(NC1=Nc2ccccc2CN1)c1ccccc1Cl
33.5
O=S(=O)(NC1=Nc2c(Cl)cc(Cl)cc2CN1)c1cccc2ccccc12
48.4
CC1NC(NS(=O)(=O)c2cccc3ccccc23)=Nc2cccc(F)c21 (stereo not shown)
42.3
Nc1nc2ccccc2n1S(=O)(=O)c1cccc2cccnc12
35.7
O=S(=O)(NC1=Nc2ccccc2CN1)c1cc(Cl)cc(Cl)c1
42.6
COc1ccc2c(c1)N=C(NS(=O)(=O)c1cccc3ccccc13)NC2
39.2

// sample `COc1cccc2c1CNC(NS(=O)(=O)c1cccc3ccccc13)=N2` , its CHI IAM was 41.4

Short answer for CC1NC(NS(=O)(=O)c2cccc3ccccc23)=Nc2cc(Cl)ccc21 (stereo not shown) : CHI IAM was 45.8
